Just for reference, ChEMBL document CHEMBL3885861 is where these values come from.

- Species: Rattus norvegicus
- experiment summary: Open TG-GATES - Regimen: Daily Repeat
- Assay type: toxicity, organism-based, Sprague-Dawley
- Parameters: regimen Daily Repeat, gender Male, age 6 weeks
- condition details: in vivo, po, 0 mg/kg, […], tissue Plasma, route gavage, dose level Control, time 14 day

{"columns": ["compound", "A/G"],
 "data": [
  ["CN/C(=N/CCSCc1nc[nH]c1C)NC#N [CIMETIDINE]", 1.4],
  ["Brc1ccccc1 [BROMOBENZENE]", 0.8],
  ["Cc1nnc2n1-c1ccc(Cl)cc1C(c1ccccc1Cl)=NC2 [TRIAZOLAM]", 0.8],
  ["CN(C)CCC(c1ccc(Cl)cc1)c1ccccn1 (stereo unspecified) [CHLORPHENIRAMINE]", 0.8],
  ["CC(C)NNC(=O)c1ccncc1 [IPRONIAZID]", 1.1],
  ["CN1C(=O)CCS(=O)(=O)C1c1ccc(Cl)cc1 (stereo unspecified) [CHLORMEZANONE]", 0.8],
  ["NC1=NC(=O)C(c2ccccc2)O1 (stereo unspecified) [PEMOLINE]", 0.8],
  ["CNC(=C[N+](=O)[O-])NCCSCc1ccc(CN(C)C)o1 [RANITIDINE]", 1.4],
  ["CCCc1cc(=O)[nH]c(=S)[nH]1 [PROPYLTHIOURACIL]", 1.8],
  ["Nc1c2c(nc3ccccc13)CCCC2 [TACRINE]", 1.3],
  ["O=C(OC[C@H]1O[C@@H](OC(=O)c2cc(O)c(O)c(OC(=O)c3cc(O)c(O)c(O)c3)c2)[C@H](OC(=O)c2cc(O)c(O)c(OC(=O)c3cc(O)c(O)c(O)c3)c2)[C@@H](OC(=O)c2cc(O)c(O)c(OC(=O)c3cc(O)c(O)c(O)c3)c2)[C@@H]1OC(=O)c1cc(O)c(O)c(OC(=O)c2cc(O)c(O)c(O)c2)c1)c1cc(O)c(O)c(OC(=O)c2cc(O)c(O)c(O)c2)c1 [TANNIC ACID]", 1.8]
]}
